# credit: patent US20220177587A1

Target: huPD-L1 (Homo sapiens, UniProt Q9NZQ7)
Sequence (Q9NZQ7 19-290): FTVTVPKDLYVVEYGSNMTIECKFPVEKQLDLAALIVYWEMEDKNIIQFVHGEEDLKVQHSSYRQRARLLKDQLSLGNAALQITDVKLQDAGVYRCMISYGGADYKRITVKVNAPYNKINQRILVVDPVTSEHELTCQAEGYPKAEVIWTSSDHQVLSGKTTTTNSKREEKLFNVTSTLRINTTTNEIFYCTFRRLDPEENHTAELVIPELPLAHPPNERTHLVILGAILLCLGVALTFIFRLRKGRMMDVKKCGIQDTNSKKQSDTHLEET
Assay: Flow binding to CHO cells stably expressing PD-L1
Parameters: huCTLA4 and huPD-L1, full-length mammalian surface expression constructs were generated; expressed in transfected cells; host or cells: CHO cells, lentiviral transduction, sorted to >98% purity
Settings: Table E10; binding to PD-L1 compared to binding to CD28
Protocol: Binding of selected immunomodulatory fusion proteins to cognate binding partners was assessed. […] Cells were sorted in a Bio-Rad S3 Cell Sorter (Bio-Rad Corp., USA) to >98% purity. […] For staining and analysis by flow cytometry, 100,000 cells of appropriate transfected cells were plated in 96-well round bottom plates. […] Cells were then washed twice with 150 μL/well stain buffer, fixed in 2% formaldehyde/PBS, and analyzed on Intellicyt flow cytometer (Intellicyt Corp., USA). […]
Entries and their Ratio of PDL1:CD28
Answer with a number only.

In the examples that follow, each entry is paired with its recorded Ratio of PDL1:CD28.
INSERT INTO assay_data (molecule, recorded_value) VALUES
  ('E35D/M47V (protein) VIHVTKEVKEVATLSCGHNVSVEELAQTRIYWQKDKKMVLTMMSGDVNIWPEYKNRTIFDITNNLSIVILALRPSDEGTYECVVLKYEKDAFKREHLAEVTLSVKAD', 6),
  ('H18Y/E35D (protein) VIHVTKEVKEVATLSCGYNVSVEELAQTRIYWQKDKKMVLTMMSGDMNIWPEYKNRTIFDITNNLSIVILALRPSDEGTYECVVLKYEKDAFKREHLAEVTLSVKAD', 7),
  ('M43I/M47L/A71G (protein) VIHVTKEVKEVATLSCGHNVSVEELAQTRIYWQKEKKMVLTMISGDLNIWPEYKNRTIFDITNNLSIVILGLRPSDEGTYECVVLKYEKDAFKREHLAEVTLSVKAD', 8),
  ('H18Y/E35D/M47L/A71G/A91S (protein) VIHVTKEVKEVATLSCGYNVSVEELAQTRIYWQKDKKMVLTMMSGDLNIWPEYKNRTIFDITNNLSIVILGLRPSDEGTYECVVLKYEKDSFKREHLAEVTLSVKAD', 14),
  ('E35D/D46E/L85M (protein) VIHVTKEVKEVATLSCGHNVSVEELAQTRIYWQKDKKMVLTMMSGEMNIWPEYKNRTIFDITNNLSIVILALRPSDEGTYECVVMKYEKDAFKREHLAEVTLSVKAD', 18),
  ('Q27L/E35D/M47V/I61V/L85M (protein) VIHVTKEVKEVATLSCGHNVSVEELALTRIYWQKDKKMVLTMMSGDVNIWPEYKNRTIFDVTNNLSIVILALRPSDEGTYECVVMKYEKDAFKREHLAEVTLSVKAD', 12),
  ('Q27H/E35D/M47I (protein) VIHVTKEVKEVATLSCGHNVSVEELAHTRIYWQKDKKMVLTMMSGDINIWPEYKNRTIFDITNNLSIVILALRPSDEGTYECVVLKYEKDAFKREHLAEVTLSVKAD', 5);

In: Give the measured Ratio of PDL1:CD28 of E35D/D46E (protein) VIHVTKEVKEVATLSCGHNVSVEELAQTRIYWQKDKKMVLTMMSGEMNIWPEYKNRTIFDITNNLSIVILALRPSDEGTYECVVLKYEKDAFKREHLAEVTLSVKAD .
Out: 5
